Origin of the recorded values: patent US20230114728A1

Would you mind telling me the reported MIC of each entry?
# System: P. aeruginosa CDC-0110
# experimentalProtocol: Broth microdilution MIC in iron-depleted CAMHB (IDM)
# Format: cell-based
# conditions: Pseudomonas aeruginosa, CDC0110, read-out: Minimum Inhibitory Concentration, P. aeruginosa CDC-0110

Inquiry: Recall the recorded MIC for CCN1CCN(C(=O)NC(C(=O)N[C@H]2Cc3cccc(C(=O)O)c3OB2O)c2ccc(O)c(NC(=O)c3ccc(O)c(O)c3Cl)c2)C(=O)C1=O (some centres unmarked) with P. aeruginosa CDC-0110 and state it.
Reply text: 2 to 4 µg/mL

Inquiry: Quick check: MIC on P. aeruginosa CDC-0110, item C[C@H]1CN(CCNC(=O)c2ccc(O)c(O)c2Cl)C(=O)C(=O)N1C(=O)NC(C(=O)N[C@H]1Cc2cccc(C(=O)O)c2OB1O)c1ncc(O)cc1F (some centres unmarked) ?
Reply text: 2 to 4 µg/mL

Inquiry: Query the reported MIC for P. aeruginosa CDC-0110; item: NCCN1CCN(C(=O)N[C@@H](C(=O)N[C@H]2Cc3ccc(F)c(C(=O)O)c3OB2O)c2cc(F)c(O)c(O)c2Cl)C(=O)C1=O (single isomer, unassigned)
Reply text: 0.5 to 1 µg/mL

Inquiry: Kindly state the measured MIC obtained for CCN1CCN(C(=O)N[C@@H](C(=O)N[C@H]2Cc3ccc(F)c(C(=O)O)c3OB2O)c2c(Cl)cc(O)c(O)c2F)C(=O)C1=O (single isomer, unassigned) with P. aeruginosa CDC-0110.
Reply text: 2 to 4 µg/mL

Inquiry: Kindly state the measured MIC obtained for CS(=O)(=O)N1CCN(C(=O)NC(C(=O)N[C@H]2Cc3ccc(F)c(C(=O)O)c3OB2O)c2ccc(O)c(O)c2Cl)C1=O (some centres unmarked) with P. aeruginosa CDC-0110.
Reply text: 2 to 4 µg/mL

====

Exercise: for every item that follows, state its recorded EC50.
# targetUnderTest: E. coli K12 PBP3 (Escherichia coli)
# Sequence (P0AD68 1-577): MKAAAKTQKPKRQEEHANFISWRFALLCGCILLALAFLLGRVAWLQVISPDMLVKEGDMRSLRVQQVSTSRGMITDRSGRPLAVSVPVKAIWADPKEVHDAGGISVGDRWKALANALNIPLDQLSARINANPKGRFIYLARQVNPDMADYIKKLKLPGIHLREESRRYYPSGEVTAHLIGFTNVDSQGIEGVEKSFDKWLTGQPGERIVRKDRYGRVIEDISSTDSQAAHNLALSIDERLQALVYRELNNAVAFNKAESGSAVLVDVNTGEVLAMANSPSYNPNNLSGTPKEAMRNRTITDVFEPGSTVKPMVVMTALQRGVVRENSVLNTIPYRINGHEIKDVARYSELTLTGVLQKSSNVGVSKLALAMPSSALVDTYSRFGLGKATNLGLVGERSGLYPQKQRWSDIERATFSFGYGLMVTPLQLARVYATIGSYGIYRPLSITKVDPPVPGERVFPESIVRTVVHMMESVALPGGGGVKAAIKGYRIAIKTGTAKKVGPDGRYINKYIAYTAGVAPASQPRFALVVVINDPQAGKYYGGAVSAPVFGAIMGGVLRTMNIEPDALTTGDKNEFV
# experimentalProtocol: biochemical

Inquiry: Please tell me: EC50 of NCCCN1CCN(C(=O)N[C@H](C(=O)N[C@H]2Cc3ccc(F)c(C(=O)O)c3OB2O)c2ccc(O)c(O)c2Cl)C(=O)C1=O (single isomer, unassigned) , system E. coli K12 PBP3 (Escherichia coli)?
Reply text: 30 to 500 µM

Inquiry: Hi! What's the reported EC50 for "NCCCN1CCN(C(=O)N[C@@H](C(=O)N[C@H]2Cc3cccc(C(=O)O)c3OB2O)c2cccc(NS(N)(=O)=O)c2)C(=O)C1=O" on E. coli K12 PBP3 (Escherichia coli)?
Reply text: 30 to 500 µM

Inquiry: Param readout = EC50; param system = E. coli K12 PBP3 (Escherichia coli); param query = CCN1CCN(C(=O)N[C@@H](C(=O)N[C@H]2Cc3cccc(C(=O)O)c3OB2O)c2ccc(C(=O)O)cc2)C(=O)C1=O (single isomer, unassigned) ; response: value
Reply text: < 30 µM

Inquiry: Please tell me: EC50 of CCN1CCN(C(=O)NC(C(=O)N[C@H]2Cc3cccc(C(=O)O)c3OB2O)c2c(Cl)cc(C(=O)O)cc2Cl)C(=O)C1=O (stereo partly drawn) , system E. coli K12 PBP3 (Escherichia coli)?
Reply text: 30 to 500 µM

Inquiry: # value lookup — system E. coli K12 PBP3 (Escherichia coli), readout EC50, item NCCN1CCN(C(=O)NC(C(=O)N[C@H]2Cc3cccc(C(=O)O)c3OB2O)c2cc(F)c(O)c(Cl)c2)C(=O)C1=O (stereo partly drawn)
Reply text: < 30 µM

Inquiry: Lab note: need EC50 with E. coli K12 PBP3 (Escherichia coli) for entry CCN1CCN(C(=O)N[C@@H](C(=O)N[C@H]2Cc3ccc(F)c(C(=O)O)c3OB2O)c2c(Cl)cc(O)c(O)c2F)C(=O)C1=O (single isomer, unassigned) , please look it up.
Reply text: < 30 µM

Inquiry: Provide the documented EC50 with E. coli K12 PBP3 (Escherichia coli) as the system for O=C(NCCCN1CCN(C(=O)NC(C(=O)N[C@H]2Cc3cccc(C(=O)O)c3OB2O)c2ncc(O)cc2F)C(=O)C1=O)c1ccc(O)c(O)c1Cl (stereo partly drawn)
Reply text: < 30 µM

Inquiry: Recall the recorded EC50 for O=C(O)c1cccc2c1OB(O)[C@@H](NC(=O)C(NC(=O)N1CCN(CC3CNC3)C(=O)C1=O)c1c(F)cc(O)cc1F)C2 (stereo partly drawn) with E. coli K12 PBP3 (Escherichia coli) and state it.
Reply text: < 30 µM

Inquiry: Lookup: EC50 / E. coli K12 PBP3 (Escherichia coli) / O=C(O)c1cccc2c1OB(O)[C@@H](NC(=O)C(NC(=O)N1CCNC1=O)c1c(F)cc(O)cc1F)C2 (stereo partly drawn)
Reply text: < 30 µM

Inquiry: API: value(readout=EC50, system=E. coli K12 PBP3 (Escherichia coli)) for record CCN1CCN(C(=O)NC(C(=O)N[C@H]2Cc3cccc(C(=O)O)c3OB2O)c2cc(Cl)c(C(=O)O)cc2F)C(=O)C1=O (stereo partly drawn)
Reply text: < 30 µM

Inquiry: # returns recorded EC50 (system: E. coli K12 PBP3 (Escherichia coli)) for O=C(O)c1c(F)ccc2c1OB(O)[C@@H](NC(=O)C(NC(=O)N1CCN(CCBr)C(=O)C1=O)c1c(F)cc(O)c(O)c1F)C2 (stereo partly drawn)
Reply text: < 30 µM

Inquiry: Record lookup: for E. coli K12 PBP3 (Escherichia coli), what EC50 belongs to O=C(O)c1ccc(C(NC(=O)c2ccc(O)c(O)c2Cl)C(=O)N[C@H]2Cc3cccc(C(=O)O)c3OB2O)cc1F (stereo partly drawn) ?
Reply text: 30 to 500 µM
